The reported numbers originate from patent US12544359B2.

- assay-procedure: Cytotoxicity Assay (CellTiter-Glo)
- Assay type: cell-based
- measurement-parameters: human, Hep G2 cells (ATCC HB-8065); 24 h exposure; read-out: HepG2 CC50
Structures can show the parent of a compound that is named as a salt.
We begin with a simple list: items and their reported CC50 at 24 h.
measured-property: CC50 at 24 h

INSERT INTO assay_data (compound, measured_property, measured_value) VALUES
  ('NC(=O)CNC(=O)c1ccc(-c2ccn(S(N)(=O)=O)c2C(=O)O)cc1', 'CC50 at 24 h', '> 128 µg/mL'),
  ('CCNCCNC(=O)c1ccc(-c2ccn(S(N)(=O)=O)c2C(=O)O)cc1', 'CC50 at 24 h', '> 256 µg/mL'),
  ('NCCN1CCC(c2ccn(S(N)(=O)=O)c2C(=O)O)CC1', 'CC50 at 24 h', '> 128 µg/mL'),
  ('NS(=O)(=O)n1ccc(-c2ccc(C(=O)N[C@H]3[C@@H]4CNC[C@@H]43)cc2)c1C(=O)O', 'CC50 at 24 h', '> 256 µg/mL'),
  ('CC(=O)NCCNC(=O)c1ccc(-c2ccn(S(N)(=O)=O)c2C(=O)O)cc1', 'CC50 at 24 h', '> 256 µg/mL'),
  ('CN(C)C(=O)c1ccc(-c2ccn(S(N)(=O)=O)c2C(=O)O)cc1', 'CC50 at 24 h', '> 256 µg/mL'),
  ('NCCC(=O)Nc1ccc(-c2ccn(S(N)(=O)=O)c2C(=O)O)cn1 [Example 94, sodium salt]', 'CC50 at 24 h', '> 256 µg/mL'),
  ('CN(C)CCNC(=O)c1ccc(-c2ccn(S(N)(=O)=O)c2C(=O)O)cc1', 'CC50 at 24 h', '> 256 µg/mL');
